Data provenance: PubChem BioAssay (NCI)

Tested on: IGROV1 ovarian
Assay: NCI-60 one-dose screen, 48 h (100 = growth as untreated, 0 = no growth, -100 = all killed)
Settings: 10 µM unless noted
About 83,000 compounds went through this panel and 20% of them were active in at least one assay; those are over-represented in the sample as a whole.
assay_endpoint: growth (%)
Numeric answer only, unit % assumed.

Observe how each entry below is paired with its result.
Cn1c2ccc(Cl)cc2c2nn(C(=O)c3ccccc3)c(=O)nc21 :: 110
COc1ccc(-c2nc(Nc3ccc(F)cc3)nc(Nc3ccc4c(c3)nc(C)n4Cc3ccccc3)n2)cc1 :: 36.4
COc1cc(C(=O)/C=C/c2c(-c3cccs3)nc3sccn23)cc(OC)c1OC :: 5.57
O=C1c2c(c3c4cc(Br)ccc4[nH]c3c3ccc4ccccc4c23)C(=O)N1O :: 70.2
COc1ccccc1-n1c(SCc2cc(OC)c(OC)c(OC)c2)nc2ccc(Cl)cc2c1=O :: 47.7

Turning now to a further record.
Exercise: Which growth is listed for O=C(c1cnn2c1NC(c1ccc(F)cc1)C2)N1CCCCC1 (stereo not given) ?
Solution: 103
